ASSAY_PROTOCOL: Antioxidant activity assessed as inhibition of peroxynitrite anion-induced oxidation of non-fluorescent DHR by rhodamine 123 staining in absence of NaHCO3
Assay type: functional

# COMPOUND, IC50
measured = [
    ("COC(=O)[C@H](Cc1cn(CCCc2ccccc2)c2ccccc12)NC(C)=O", "Not Active"),
    ("COC(=O)C(Cc1cn(CC=C(C)C)c2ccccc12)N1C(=O)c2ccccc2C1=O (stereo unspecified)", "Not Active"),
    ("COC(=O)C(Cc1c(CCC(C)C)[nH]c2ccccc12)N1C(=O)c2ccccc2C1=O (stereo unspecified)", "Not Active"),
    ("CC(C)=CCn1cc(CCN2C(=O)c3ccccc3C2=O)c2ccccc21", "Not Active"),
    ("COC(=O)C(Cc1c(CC=C(C)C)[nH]c2ccccc12)N1C(=O)c2ccccc2C1=O (stereo unspecified)", "Not Active"),
    ("CC(C)CCn1cc(CCN2C(=O)c3ccccc3C2=O)c2ccccc21", "Not Active"),
]
